Recorded values, source the supplement of paper PMC10065799.

Tested on: c-Abl (mouse)
Assay: phosphorylation enrichment, bacterial display (enrichment ratio); higher = better substrate or ligand; peptides without Tyr show the background
MEASURE: phosphorylation enrichment

Reference set (5 entries):
PQAVRYIFTID [DCX_Y103_G100A_YF] | 0.863
QGLRLYRSHLA [BTK_Y617_P619S] | 0.801
PSRKDYETFQP [CTNND2_Y1154_YF] | 0.907
PSAVAYPKRSQ [MARK3_Y432_V429A] | 0.615
SLFNGYVYSGM [NEIL3_Y71_V76M] | 0.625

// for each sequence below, give its phosphorylation enrichment
1. YGSSSYGGAGG [RPA2_Y14]
2. RRDRDYTNLPS [CSF1R_Y923_E920D]
3. LNPLIYTLRNA [OR4C46_Y285_K288R]
4. YEEDSYSHIMA [FDPS_Y388]
5. MPVDGYISGLL [PAK6_Y81]
6. RPCVVYGGADI [DDX3X_Y301]
7. KIRDWYQRQRP [KRT14_Y151]

Out:
1: 0.899; 2: 1.65; 3: 1.76; 4: 0.663; 5: 0.622; 6: 0.703; 7: 0.637

// for each sequence below, give its phosphorylation enrichment
1. HVLEEYKPKQG [SAXO2_Y37_P34L]
2. AGGTRYRYVSQ [UCN3_Y95_R91G]
3. RREWFYEVIIA [BACE1_Y260_V265A_YF]
4. SVVVPYEPPDV [TP53_Y220_E224D]
5. LFSDHYSPSGR [TMPRSS12_Y23_YF]
6. DKEKWYPLGNS [PIK3C2G_Y1438]

Out:
1. 0.698
2. 0.474
3. 0.483
4. 0.603
5. 0.331
6. 0.488

---

Target: MERTK (UniProt Q12866)
Sequence (Q12866 whole entry, looked up): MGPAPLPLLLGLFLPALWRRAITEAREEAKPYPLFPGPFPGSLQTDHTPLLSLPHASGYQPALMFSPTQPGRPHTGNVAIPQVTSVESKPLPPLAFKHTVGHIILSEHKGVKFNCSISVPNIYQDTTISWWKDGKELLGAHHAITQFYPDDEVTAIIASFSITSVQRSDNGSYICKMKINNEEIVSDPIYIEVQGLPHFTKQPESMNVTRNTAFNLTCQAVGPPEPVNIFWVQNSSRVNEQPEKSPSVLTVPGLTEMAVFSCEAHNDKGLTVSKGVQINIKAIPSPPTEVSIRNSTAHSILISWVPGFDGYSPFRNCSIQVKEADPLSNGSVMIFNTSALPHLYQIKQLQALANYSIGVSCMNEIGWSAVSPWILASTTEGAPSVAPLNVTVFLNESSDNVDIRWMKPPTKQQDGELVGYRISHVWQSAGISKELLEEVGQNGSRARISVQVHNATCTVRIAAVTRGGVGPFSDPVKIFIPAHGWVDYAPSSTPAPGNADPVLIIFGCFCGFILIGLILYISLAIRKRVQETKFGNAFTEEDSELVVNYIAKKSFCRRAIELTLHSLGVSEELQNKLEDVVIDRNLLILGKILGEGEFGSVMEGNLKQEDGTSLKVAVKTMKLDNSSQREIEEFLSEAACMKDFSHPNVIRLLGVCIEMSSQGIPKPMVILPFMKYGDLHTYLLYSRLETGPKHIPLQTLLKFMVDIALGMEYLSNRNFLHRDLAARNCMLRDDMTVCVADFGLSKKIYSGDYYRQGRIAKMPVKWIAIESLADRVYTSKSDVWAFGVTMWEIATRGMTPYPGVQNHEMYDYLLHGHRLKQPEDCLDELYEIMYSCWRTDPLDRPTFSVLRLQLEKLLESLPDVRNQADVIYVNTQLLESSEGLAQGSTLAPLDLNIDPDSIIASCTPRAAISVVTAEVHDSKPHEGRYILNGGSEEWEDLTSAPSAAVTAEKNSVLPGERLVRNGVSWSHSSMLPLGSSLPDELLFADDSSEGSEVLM
Experiment: phosphorylation enrichment, bacterial display (enrichment ratio); higher = better substrate or ligand; peptides without Tyr show the background
Would you mind telling me the reported phosphorylation enrichment of each entry?
One number for each entry.

LARNMYDKEFF [MET_Y1230_D1228N_YF] | 0.578

// for each sequence below, give its phosphorylation enrichment
1. REVPVYTFSEP [FAM120B_Y368_D370Y_YF]
2. SAPPSHEETVA [LITAF_Y23_Y23H]

Out:
3.58
0.338

// for each sequence below, give its phosphorylation enrichment
1. AFGGGYGGVLT [KRT19_Y65_YF]
2. SLIDMYSEVLA [OPA1_Y268_D273A]
3. VSRGRYRPQEC [B4GALT4_Y113]
4. PNAYIYVVQLP [L1CAM_Y420_A415P]
5. LLANAYIFVVQ [L1CAM_Y418_YF]
6. TLKDVYDDGKY [RPS6KA3_Y483]

Out:
0.286
0.615
0.575
2.25
0.482
0.557

In: What value of measured phosphorylation enrichment is listed for VRFMANTDETF [F8_Y450_Y450N] ?
Out: 0.408

---

System: c-Src
Experiment: phosphorylation enrichment, bacterial display (enrichment ratio); higher = better substrate or ligand; peptides without Tyr show the background
// criterion not met strictly below 0.6 in phosphorylation enrichment; criterion met otherwise

Previously resolved entries follow.
NPQKSYFIRLY [WAS_Y83] | criterion not met
EQQRAYLEGTC [HLA-C_Y183_L180Q] | criterion not met
DDKEYYSVHNK [MET_Y1235_Y1230D] | criterion met
TVQVAYYTVMM [SPATA17_Y83_M86V] | criterion met

In: // inclusive: phosphorylation enrichment at least 0.6? input: HEEDNYIELIP [NWD2_Y566]
Out: criterion met

In: // inclusive: phosphorylation enrichment at least 0.6? input: QADVVYVNTQL [MERTK_Y872_I871V]
Out: criterion met

In: // inclusive: phosphorylation enrichment at least 0.6? input: AKQVGCENAGT [PC_Y304_Y304C]
Out: criterion not met

In: // inclusive: phosphorylation enrichment at least 0.6? input: GFKVRYATGSI [FGFR1_Y210_W213G_YF]
Out: criterion not met

In: // inclusive: phosphorylation enrichment at least 0.6? input: VVVTKYCKEEL [ATP7B_Y1078_A1074V]
Out: criterion not met

In: // inclusive: phosphorylation enrichment at least 0.6? input: AQESNYRLLRR [SLC20A2_Y377]
Out: criterion not met

In: // inclusive: phosphorylation enrichment at least 0.6? input: EDAHHYLCKEV [JAK2_Y382_A377E]
Out: criterion not met

---

Biological target: FGFR3 (UniProt P22607)
Sequence (P22607 whole entry, looked up): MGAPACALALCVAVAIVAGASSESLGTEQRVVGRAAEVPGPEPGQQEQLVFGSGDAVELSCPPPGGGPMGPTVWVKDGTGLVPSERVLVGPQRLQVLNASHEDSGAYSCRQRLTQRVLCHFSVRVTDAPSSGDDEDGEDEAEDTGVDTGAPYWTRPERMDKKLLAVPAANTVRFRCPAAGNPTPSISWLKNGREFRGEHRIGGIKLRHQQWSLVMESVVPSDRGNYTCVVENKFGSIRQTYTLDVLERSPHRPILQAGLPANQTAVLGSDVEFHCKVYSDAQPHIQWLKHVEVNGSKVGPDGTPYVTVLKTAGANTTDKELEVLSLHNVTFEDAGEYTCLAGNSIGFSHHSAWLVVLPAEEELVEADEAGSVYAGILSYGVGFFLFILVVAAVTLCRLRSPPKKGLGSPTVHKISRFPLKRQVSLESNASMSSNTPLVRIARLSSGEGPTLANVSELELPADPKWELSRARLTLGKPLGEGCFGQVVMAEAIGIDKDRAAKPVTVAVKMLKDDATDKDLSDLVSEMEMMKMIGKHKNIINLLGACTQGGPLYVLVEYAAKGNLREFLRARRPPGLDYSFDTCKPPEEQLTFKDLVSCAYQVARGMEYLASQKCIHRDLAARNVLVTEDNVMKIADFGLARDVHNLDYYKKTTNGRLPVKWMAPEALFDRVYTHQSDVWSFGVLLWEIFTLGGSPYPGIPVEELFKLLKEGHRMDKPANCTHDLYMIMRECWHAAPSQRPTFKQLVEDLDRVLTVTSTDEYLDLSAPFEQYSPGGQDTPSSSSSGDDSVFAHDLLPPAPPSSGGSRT
Experiment: phosphorylation enrichment, bacterial display (enrichment ratio); higher = better substrate or ligand; peptides without Tyr show the background
// n strictly below 0.8 in phosphorylation enrichment; y otherwise

RGGDSYGGPPR [RBMX_Y190_R187G] | n
GANFEYIIAEK [ECHS1_Y35] | n

Continue with the sequence presented below.
In: // inclusive: phosphorylation enrichment at least 0.8? input: SLIDMYSEVLA [OPA1_Y268_D273A]
Out: y

---

Molecular target: SHP2-C SH2;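 note: peptide library displayed on the E. coli surface as eCPX fusions, selected cells deep-sequenced, score is each peptide's frequency after selection divided by its frequency in the input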
Assay: SH2 binding enrichment of the phosphorylated peptide, bacterial display (enrichment ratio); higher = better substrate or ligand; peptides without Tyr show the background
Would you mind telling me the reported SH2 binding enrichment of each entry?
One number for each entry.

// for each sequence below, give its SH2 binding enrichment
1. IKNSGYISQFL [EIF2AK3_Y585_R588Q_YF]
2. ETGEPYRLSPE [EIF4G1_Y311]

Out:
[0.878, 0.75]

// for each sequence below, give its SH2 binding enrichment
1. TINPIHEHVGF [CHN1_Y143_Y143H_YF]
2. IVFTSYFLTIL [TAS2R16_Y239]

Out:
[0.757, 0.955]

// for each sequence below, give its SH2 binding enrichment
1. DKNSSYFADWL [TUBB8_Y340]
2. NFSKMYCNPDA [KNL1_Y489_A486S_YF]
3. DVLVEYQEEGR [GNS_Y416_G418E]
4. MKGDYYCYLAE [YWHAG_Y131_R132C]
5. GEHSIYCTVNN [CD55_Y266]
6. EFQKKYSDADI [CKAP5_Y1860_K1857Q_YF]

Out:
1. 0.853
2. 0.619
3. 0.696
4. 0.779
5. 0.639
6. 0.59

---

System: AncSZ
Assay: phosphorylation enrichment, bacterial display (enrichment ratio); higher = better substrate or ligand; peptides without Tyr show the background
MEASURE: phosphorylation enrichment
Numbers only.

IKGNMYFENSF [EGFR_Y112_R108K_YF] | 0.991
ITLPIYTKESE [ANK2_Y1455] | 0.961
YNNYGYGNDGF [HNRNPH3_Y161] | 0.789
GIVEDYRPRFF [ACVRL1_Y421_P424R_YF] | 0.811
SVTCTYSPAPN [TP53_Y126_L130P] | 1.12
RLEPVYFVAPA [LAMC2_Y250_D247E] | 2.59
FRDMDYRSFPH [RBM10_Y41_R46H_YF] | 0.55
SILTVYSKDNF [PANK2_Y400_A398T_YF] | 0.814

// for each sequence below, give its phosphorylation enrichment
1. KLADMYGGGKD [CDH1_Y876_E880K]
2. DSMQSYDLDYP [UNC13B_Y243]
3. RAVLLYEYVGK [NATD1_Y45]

Out:
[0.584, 1.3, 3.07]

---

Target: EPHB1 (UniProt P54762)
Sequence (P54762 whole entry, looked up): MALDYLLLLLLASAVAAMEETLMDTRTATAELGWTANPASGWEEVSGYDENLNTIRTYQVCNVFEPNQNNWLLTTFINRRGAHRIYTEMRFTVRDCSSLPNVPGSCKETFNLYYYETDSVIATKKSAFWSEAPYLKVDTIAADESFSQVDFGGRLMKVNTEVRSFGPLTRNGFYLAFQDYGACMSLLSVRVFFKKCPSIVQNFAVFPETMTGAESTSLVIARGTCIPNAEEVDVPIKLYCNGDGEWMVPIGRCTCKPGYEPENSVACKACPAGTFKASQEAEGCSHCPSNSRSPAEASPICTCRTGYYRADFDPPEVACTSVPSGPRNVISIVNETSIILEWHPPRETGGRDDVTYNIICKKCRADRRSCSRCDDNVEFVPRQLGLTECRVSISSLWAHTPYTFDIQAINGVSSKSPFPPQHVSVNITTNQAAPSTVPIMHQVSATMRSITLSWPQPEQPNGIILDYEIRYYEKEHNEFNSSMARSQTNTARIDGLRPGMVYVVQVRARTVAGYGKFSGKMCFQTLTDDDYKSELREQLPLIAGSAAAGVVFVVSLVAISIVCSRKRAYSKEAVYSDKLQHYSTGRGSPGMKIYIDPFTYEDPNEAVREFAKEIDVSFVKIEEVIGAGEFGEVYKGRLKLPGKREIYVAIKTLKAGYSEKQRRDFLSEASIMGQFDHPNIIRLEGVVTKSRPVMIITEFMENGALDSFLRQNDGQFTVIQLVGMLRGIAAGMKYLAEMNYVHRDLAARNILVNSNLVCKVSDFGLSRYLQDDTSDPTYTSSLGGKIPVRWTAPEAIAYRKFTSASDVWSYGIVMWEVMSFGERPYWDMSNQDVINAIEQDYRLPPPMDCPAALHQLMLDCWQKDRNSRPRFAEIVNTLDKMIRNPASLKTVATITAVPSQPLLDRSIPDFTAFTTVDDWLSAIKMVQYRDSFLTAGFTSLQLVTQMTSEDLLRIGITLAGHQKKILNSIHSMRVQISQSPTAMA
Assay: phosphorylation enrichment, bacterial display (enrichment ratio); higher = better substrate or ligand; peptides without Tyr show the background
MEASURE: phosphorylation enrichment
Answers are plain numbers.

Reference set (8 entries):
TLQSMSGCDVG [HLA-B_Y123_Y123S] | 0.488
PQEVMYAQLDH [KIR3DL2_Y398_T397M] | 1.06
PTYKHYANSTQ [SLC12A3_Y70_E68K] | 0.391
REAMEYLESKQ [BTK_Y511_C506R] | 0.657
KVKSIYFHTQG [AR_Y916_P914S] | 0.542
EESREYDRLFE [PIK3R1_Y463_K459E_YF] | 0.489
WKGSWYSMRKM [FGB_Y475] | 0.588
AFGGGYGGVLT [KRT19_Y65_YF] | 0.478

// for each sequence below, give its phosphorylation enrichment
1. ARRHPYFFAPE [ALB_Y172_Y174F]
2. AKRKGYDMRVD [NEB_Y2770]
3. SRDDYYETIAM [NPY1R_Y347_D346Y]
4. CGQDPCIRELG [UROS_Y19_Y19C]
5. FSGIFYKPESL [L2HGDH_Y103_H98Y_YF]
6. VVIVLYFSLWK [SLC6A2_Y249]

Out:
[0.546, 0.295, 2.19, 0.44, 0.5, 0.254]

// for each sequence below, give its phosphorylation enrichment
1. DKANRYFSPNF [PTEN_Y336]
2. ITNLLYHVVGG [GBA_Y412_W417G]
3. NNIDFYKKTTN [FGFR2_Y657_YF]
4. IITDYYVDMKF [MPP4_Y567_V562I]
5. PSAVAYPKRSQ [MARK3_Y432_V429A]
6. SFGESYDNSKS [MAN1B1_Y60_N59S]
7. QKFMAYLSQGW [HLCS_Y236_G241W]
8. DDKQPYEKKAA [HMGB1_Y144]

Out:
1: 0.296; 2: 5.68; 3: 0.639; 4: 3.56; 5: 0.544; 6: 0.474; 7: 0.812; 8: 0.585
